ASSAYED_TARGET: Serine/threonine-protein kinase ULK1 (Homo sapiens)
TEST: Inhibition of ULK1 at 1 uM
The entries below are paired with their reported inhibition.

Query block: Write down the reported inhibition of CN1CCN(c2ccc(-c3cnc4c(c3)N(Cc3cc(Cl)ccc3C(F)(F)F)CCN4)cn2)CC1 , test system: Serine/threonine-protein kinase ULK1 (Homo sapiens).
Result block: < 50%

Query block: // lookup inhibition | system=Serine/threonine-protein kinase ULK1 (Homo sapiens) | key= CC(=O)N1CCN(c2cc(-c3cnc4c(c3)N(Cc3cc(Cl)ccc3C(F)(F)F)CCN4)ccn2)CC1
Result block: < 50%

Query block: Write down the reported inhibition of CN1CCN(c2ccc(-c3cnc4c(c3)N(Cc3c(F)ccc(F)c3Cl)CCN4)cn2)CC1 , test system: Serine/threonine-protein kinase ULK1 (Homo sapiens).
Result block: < 50%

Query block: Value wanted: inhibition (Serine/threonine-protein kinase ULK1 (Homo sapiens)) of entry CN1CCN(c2ccc(-c3cnc4c(c3)N(Cc3cc(Cl)ccc3Cl)CCN4)cn2)CC1
Result block: < 50%

Query block: Quick check: inhibition on Serine/threonine-protein kinase ULK1 (Homo sapiens), item FC(F)(F)c1ccc(Cl)cc1CN1CCNc2ncc(-c3ccnc(N4CCNCC4)c3)cc21 ?
Result block: < 50%

Query block: Param readout= inhibition; system= Serine/threonine-protein kinase ULK1 (Homo sapiens); entry= CN1CCN(c2ccc(-c3cnc4c(c3)N(Cc3cc(F)ccc3F)CCN4)cn2)CC1 ; returns value.
Result block: < 50%
